Test system: THRa:RXRa (NR concentration 90 nM, RXRa partner concentration 90 nM)
assay-procedure: PBM binding z-score (relative to random genomic background probes); higher = stronger binding; sequences stand for … in GC…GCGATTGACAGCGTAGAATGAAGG
Assign 1.0 whenever PBM binding z-score does not fall below 3; assign 0.0 whenever it does.

sequence_record=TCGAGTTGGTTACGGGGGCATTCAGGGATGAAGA class_assignment=1.0
sequence_record=CGTCCAAGGTAAATGCTAGGTCAGTGAAAGCATT class_assignment=0.0
sequence_record=CGAACTAGGTCACCAGGACAGTGACGAGGTTGGA class_assignment=1.0
sequence_record=TGTCAAAGTTCTAAGGTAACGTAAGTATCCACAC class_assignment=0.0
sequence_record=ATCGGAAGGTCGAGGTGAGTATAGAGAAAGGGAA class_assignment=0.0
sequence_record=ATATGTAGGTTTGGGTCATTCAGAAAGTAGGGAA class_assignment=0.0
sequence_record=CTATGTAGGTTAAAGGGGTCATTCAGTTTGAAAG class_assignment=1.0
sequence_record=CCTACTGGGCCAAAAAGGCCATTGATGCCGATAA class_assignment=0.0
sequence_record=CCTAGTGGGCCAAAGGTCATTGATTCCAATGCTC class_assignment=1.0
sequence_record=TCGAGCAGGTTACGGGGGCATTCAGGGATGAAGA class_assignment=1.0
sequence_record=GATACAGGGGCAAGGCCAGAGTACGCGTATTGAT class_assignment=0.0
sequence_record=CCTACGGGGCCAAGGTCATTGATCAGTCAAAGCA class_assignment=1.0
